All figures here come from PubChem BioAssay (NCI).

procedure.summary: NCI Yeast Anticancer Drug Screen. Data for the bub3 strain (AID 167)
test.settings: S. cerevisiae bub3 mutant strain, at 11.0 µM, active compounds read high
About 79,000 compounds went through this panel and 15% of them were active in at least one assay; those are over-represented in the sample as a whole.
We begin with a simple list: items and their reported growth inhibition.
measure: growth inhibition (%)

| molecule | readout.number |
| --- | --- |
| CC(C)c1ccc(NC(=S)NC(=O)c2ccccc2)cc1 | 78 |
| COc1ccc(C2C3=C(COC3=O)OC(C)(C)Oc3cc4c(cc32)OCO4)cc1OC (stereo unspecified) | -33 |
| COC(=O)Nc1cn2ccc(C(Cl)=C(Cl)Cl)cc2n1 | -28 |
| Cc1ccc(N=Nc2ccc(O)c(=O)cc2)cc1 | 49 |
| CCCCCCC(O)CNCc1ccnc2ccc(OC)cc12 (stereo unspecified) | 24 |
| CCCCCOC(=S)SC(=O)OCC | 40 |
